Reported values of CC50 for individual entries
System: K562
protocol details: Cytotoxicity against human K-562 cells after 5 days by MTT assay
Assay type: functional
run parameters: K562, 120 h, read-out: LC50 (the source's name)

>>> print(df.to_string())
                                   compound     measured
0  CCC(C)CCCCCC#C/C=C\OC[C@@H](O)CO (stereo partly specified)  > 100 µg/mL
1       CC(C)CCCC/C=C\C#C/C=C\OC[C@@H](O)CO     57 µg/mL
2          CCCCCC/C=C\C#C/C=C\OC[C@@H](O)CO    9.2 µg/mL
3  CCC(C)CCCCC/C=C\C#C/C=C\OC[C@@H](O)CO (stereo partly specified)     29 µg/mL
4             CCCCCCCCC#C/C=C\OC[C@@H](O)CO  > 100 µg/mL

INPUT: Entry CC(C)CCCCCCC#C/C=C\OC[C@@H](O)CO has what CC50?
OUTPUT: > 100 µg/mL
